IC50, TNFα cytotoxicity assay (WEHI-13VAR cells) values, listed per item
Biological target: tumor necrosis factor alpha (TNFα) (human, UniProt P01375 77-233)
Sequence (P01375 77-233 limits assumed): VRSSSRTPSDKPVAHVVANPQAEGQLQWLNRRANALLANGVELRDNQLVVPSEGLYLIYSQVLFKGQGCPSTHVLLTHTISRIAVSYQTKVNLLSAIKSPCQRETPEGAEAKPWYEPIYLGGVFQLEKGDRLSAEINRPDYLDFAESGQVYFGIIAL
Test: cell-based or functional assay
Quick note: give the figure in nM, leave out the unit.

BINDER	READING_UNIT	ENDPOINT_RESULT
MAb 1989 (antibody, V domains shown, IgG1/kappa, CHO; also called H1814/L459) VH: EVQLVESGGGLIQPGGSLRLSCAVSGLNVSRDYMSWVRQAPGKGLEWISVIYRVGATMYADSVKGRFTISRDTSKNTVFLQMSRLKVADTAVYYCARNYYGSTLDYWGQGTLVTVSS VL: EIVLTQSPVTLSVPPGERASLSCRASQNIYTAVAWYQQKPGQAPRLLIYNASTRATGIPARFSGGGSGTDYTLTISSLESEDFAVYHCQQWHSWPLTFGGGTKLEIK	nM	0.2
MAb 716 (antibody, V domains shown, also called 142 F2; H1280/L250) VH: EVQLLESGGGLIQPGGSLRLSCAASGFTVSSNYMSWVRQAPGKGLEWVSVIYSGGSTYYADSVKGRFTISRDNSKNTLYLQMNSLRAEDTAVYYCARNYYGSTYDYWGQGTLVTVSS VL: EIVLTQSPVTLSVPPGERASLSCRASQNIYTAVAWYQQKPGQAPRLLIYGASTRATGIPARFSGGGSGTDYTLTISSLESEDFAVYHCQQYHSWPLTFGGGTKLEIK	nM	31.4

Now consider the entry below.
Field IC50, TNFα cytotoxicity assay (WEHI-13VAR cells) (entry MAb 1999 (antibody, V domains shown, IgG1/kappa, CHO; also called H1824/L459) VH: EVQLVESGGGLIQPGGSLRLSCAVSGLNVSRDYMSWVRQAPGKGLEWISVIYRGGITMYADSVKGRFTISRDTSKNTVFLQMSRLKVADTAVYYCARNYYGSTLDYWGQGTLVTVSS VL: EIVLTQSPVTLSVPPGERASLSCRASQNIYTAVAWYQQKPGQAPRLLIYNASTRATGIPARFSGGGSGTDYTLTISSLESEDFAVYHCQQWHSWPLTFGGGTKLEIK ) reads 0.3

Source: patent US20080267974A1
